Entries and their measured ΔTm follow.
- Tested on: Nucleic Acid
- test_protocol: Binding affinity to human G4 telomeric quadruplex DNA assessed as change in melting temperature at 2 uM by FRET melting assay
- Type: nucleic-acid assay
Report the value in °C with no unit label.

INSERT INTO measurements (structure_as_smiles, system_tested, value_measured) VALUES
  ('c1cc(-c2cnc(-c3ccc(CN4CCCCCC4)cc3)o2)cc(-c2cnc(-c3ccc(CN4CCCCCC4)cc3)o2)c1', 'Nucleic Acid', 7),
  ('c1cc(-c2cnc(-c3ccc(CN4CCCC4)cc3)o2)cc(-c2cnc(-c3ccc(CN4CCCC4)cc3)o2)c1', 'Nucleic Acid', 6);

Lookup: Find ΔTm (Nucleic Acid) for the entry `c1cc(-c2cnc(-c3ccc(CN4CCOCC4)cc3)o2)cc(-c2cnc(-c3ccc(CN4CCOCC4)cc3)o2)c1`
Found: 2
